Test system: antibodies in sera from SARS patients (sera 1a, 1b, 2, 6, 37, 62, London, SARS-yellow, SARS-green)
Assay type: binding, human
Parameters: unit not given here
The label satisfied is reserved for Binding of serum London to looped/cyclic peptides of protein N of SARS-CoV Urbani strictly under 0.4; not satisfied covers values equal to or above it.

| sequence_input | class_label |
| --- | --- |
| TRNPNNNAATVLQLP | not satisfied |
| QPTVTLLPAADMDDF | satisfied |
| PRITFGGPTDSTDNN | satisfied |

Strictly below 0.4 in Binding of serum London to looped/cyclic peptides of protein N of SARS-CoV Urbani? "QGLPNNTASWFTALT"
not satisfied

* * *

List of Binding of serum 62 to linear peptides of protein X2 values.
System: antibodies in sera from SARS patients (sera 1a, 1b, 2, 6, 37, 62, London, SARS-yellow, SARS-green)
Format: binding, human
Enter a number only.

Sample answers from the record:
| sequence_input | assay_value |
| --- | --- |
| TVSQIQLSLLKVTAF | 0.4 |
| QWIQFMMSRRRLLAC | 0.6 |
| TALQELLIQQWIQFM | 0.5 |
| LKMLHSSSLTSLLKT | 0.6 |
| LLKVTAFQHQNSKKT | 0.1 |
| HITVSQIQLSLLKVT | 0.5 |
| LSLHKLLQTLVLKML | 0.5 |
| TAFQHQNSKKTTKLV | 0.4 |

Dear colleague, I am looking for the recorded Binding of serum 62 to linear peptides of protein X2 of the following sequence: "ISPKFTTSLSLHKLL"
0.6

Dear colleague, I am looking for the recorded Binding of serum 62 to linear peptides of protein X2 of the following sequence: "VILRIGTQVLKTMSL"
0.6

* * *

Tested on: antibodies in sera from SARS patients (sera 1a, 1b, 2, 6, 37, 62, London, SARS-yellow, SARS-green)
Format: binding, human
Design: unit not given here
Mark t for reported Binding of serum 6 to looped/cyclic peptides of protein N of SARS-CoV Urbani of 0.3 or greater; mark f for anything smaller.

Consider the following illustrative entries.
| sequence_input | class_label |
| --- | --- |
| GALNTPKDHIGTRNP | f |
| ETALALLLLDRLNQL | f |
| SAPRITFGGPTDSTD | f |
| PKQRRPQGLPNNTAS | t |

Decide: is the reported value of Binding of serum 6 to looped/cyclic peptides of protein N of SARS-CoV Urbani for "DDQIGYYRRATRRVR" equal to or greater than 0.3?
t

Decide: is the reported value of Binding of serum 6 to looped/cyclic peptides of protein N of SARS-CoV Urbani for "ARPKQRRPQGLPNNT" equal to or greater than 0.3?
f

Decide: is the reported value of Binding of serum 6 to looped/cyclic peptides of protein N of SARS-CoV Urbani for "AADMDDFSRQLQNSM" equal to or greater than 0.3?
t

Decide: is the reported value of Binding of serum 6 to looped/cyclic peptides of protein N of SARS-CoV Urbani for "GQTVTKKSAAEASKK" equal to or greater than 0.3?
f

Decide: is the reported value of Binding of serum 6 to looped/cyclic peptides of protein N of SARS-CoV Urbani for "VRGGDGKMKELSPRW" equal to or greater than 0.3?
f

Decide: is the reported value of Binding of serum 6 to looped/cyclic peptides of protein N of SARS-CoV Urbani for "GGETALALLLLDRLN" equal to or greater than 0.3?
f

Decide: is the reported value of Binding of serum 6 to looped/cyclic peptides of protein N of SARS-CoV Urbani for "PTDSTDNNQNGGRNG" equal to or greater than 0.3?
f

Decide: is the reported value of Binding of serum 6 to looped/cyclic peptides of protein N of SARS-CoV Urbani for "GGGETALALLLLDRL" equal to or greater than 0.3?
f

* * *

List of Binding of serum SARS-yellow to linear peptides of protein X4 of SARS-CoV Urbani values.
Test system: antibodies in sera from SARS patients (sera 1a, 1b, 2, 6, 37, 62, London, SARS-yellow, SARS-green)
Assay type: binding, human
Enter a number only.

Sample answers from the record:
| sequence_input | assay_value |
| --- | --- |
| LRARSVSPKLFIRQE | 0.3 |
| LYSPLFLIVAALVFL | 0.2 |
| KLFIRQEEVQQELYS | 0.4 |
| RHTYQLRARSVSPKL | 0.6 |
| ARSVSPKLFIRQEEV | 0.1 |
| PLFLIVAALVFLILC | 0.4 |
| RQEEVQQELYSPLFL | 0.7 |
| LIVAALVFLILCFTI | 0.4 |

// below: Binding of serum SARS-yellow to linear peptides of protein X4 of SARS-CoV Urbani requested for another sequence
Dear colleague, I am looking for the recorded Binding of serum SARS-yellow to linear peptides of protein X4 of SARS-CoV Urbani of the following sequence: "CELYHYQECVRGTTV"
0.6

* * *

List of Binding of serum 62 to linear peptide (PEPSCAN-ELISA) values.
System: antibodies in sera from SARS patients (sera 1a, 1b, 2, 6, 37, 62, London, SARS-yellow, SARS-green)
Assay type: binding, human

Sample answers from the record:
| sequence_input | assay_value |
| --- | --- |
| SRGNSRNSTPGSSRG | 0.7 |
| TQAFGRRGPEQTQGN | 0.5 |
| SRSSSRSRGNSRNST | 0.6 |

Dear colleague, I am looking for the recorded Binding of serum 62 to linear peptide (PEPSCAN-ELISA) of the following sequence: "SSRSRGNSRNSTPGS"
0.5

Dear colleague, I am looking for the recorded Binding of serum 62 to linear peptide (PEPSCAN-ELISA) of the following sequence: "RLNQLESKVSGKGQQ"
0.9

Dear colleague, I am looking for the recorded Binding of serum 62 to linear peptide (PEPSCAN-ELISA) of the following sequence: "GQQQQGQTVTKKSAA"
0.8

Dear colleague, I am looking for the recorded Binding of serum 62 to linear peptide (PEPSCAN-ELISA) of the following sequence: "RGGSQASSRSSSRSR"
0.7

Dear colleague, I am looking for the recorded Binding of serum 62 to linear peptide (PEPSCAN-ELISA) of the following sequence: "GGSQASSRSSSRSRG"
0.7

Dear colleague, I am looking for the recorded Binding of serum 62 to linear peptide (PEPSCAN-ELISA) of the following sequence: "AEGSRGGSQASSRSS"
0.7

Dear colleague, I am looking for the recorded Binding of serum 62 to linear peptide (PEPSCAN-ELISA) of the following sequence: "ASKKPRQKRTATKQY"
0.6

Dear colleague, I am looking for the recorded Binding of serum 62 to linear peptide (PEPSCAN-ELISA) of the following sequence: "ATKQYNVTQAFGRRG"
0.6

* * *

Tested on: rabbit serum obtained by immunizing a rabbit with the SARS-CoV strain Frankfurt 1
Assay type: binding
Design: unit not given here
List of Binding of a rabbit serum to linear peptides values.
Enter a number only.

Sample answers from the record:
| sequence_input | experimental_system | assay_value |
| --- | --- | --- |
| LPFGWLVIGVAFLAV | rabbit serum obtained by immunizing a rabbit with the SARS-CoV strain Frankfurt 1 | 2.0 |
| AGTHITMTTVYHITV | rabbit serum obtained by immunizing a rabbit with the SARS-CoV strain Frankfurt 1 | 0.7 |
| VSTNLCTHSFRKKQV | rabbit serum obtained by immunizing a rabbit with the SARS-CoV strain Frankfurt 1 | 0.3 |
| THNYDYCIPYNSVTD | rabbit serum obtained by immunizing a rabbit with the SARS-CoV strain Frankfurt 1 | 0.1 |

Dear colleague, I am looking for the recorded Binding of a rabbit serum to linear peptides of the following sequence: "RCWLCWKCKSKNPLL"
0.1

Dear colleague, I am looking for the recorded Binding of a rabbit serum to linear peptides of the following sequence: "SLLKVTAFQHQNSKK"
0.1

Dear colleague, I am looking for the recorded Binding of a rabbit serum to linear peptides of the following sequence: "TTSLSLHKLLQTLVL"
0.1

Dear colleague, I am looking for the recorded Binding of a rabbit serum to linear peptides of the following sequence: "HITVSQIQLSLLKVT"
0.7

Dear colleague, I am looking for the recorded Binding of a rabbit serum to linear peptides of the following sequence: "VANPAMDPIYDEPTT"
0.1

Dear colleague, I am looking for the recorded Binding of a rabbit serum to linear peptides of the following sequence: "LLQTLVLKMLHSSSL"
0.2

Dear colleague, I am looking for the recorded Binding of a rabbit serum to linear peptides of the following sequence: "THRMCKYTQSTALQE"
0.3

Dear colleague, I am looking for the recorded Binding of a rabbit serum to linear peptides of the following sequence: "NSVTDTIVVTEGDGI"
0.1

Dear colleague, I am looking for the recorded Binding of a rabbit serum to linear peptides of the following sequence: "TSLSLHKLLQTLVLK"
0.2

Dear colleague, I am looking for the recorded Binding of a rabbit serum to linear peptides of the following sequence: "HTIDGSSGVANPAMD"
0.1

Dear colleague, I am looking for the recorded Binding of a rabbit serum to linear peptides of the following sequence: "KDPPNVQIHTIDGSS"
0.1

Dear colleague, I am looking for the recorded Binding of a rabbit serum to linear peptides of the following sequence: "FGWLVIGVAFLAVFQ"
1.2

Dear colleague, I am looking for the recorded Binding of a rabbit serum to linear peptides of the following sequence: "GYSEDRHSGVKDYVV"
0.1

Dear colleague, I am looking for the recorded Binding of a rabbit serum to linear peptides of the following sequence: "TIDGSSGVANPAMDP"
0.1
